# target_system: Tyrosyl-tRNA synthetase, putative (Trypanosoma cruzi (strain CL Brener)) (UniProt Q4DSP6)
# Sequence (Q4DSP6 as listed by the source): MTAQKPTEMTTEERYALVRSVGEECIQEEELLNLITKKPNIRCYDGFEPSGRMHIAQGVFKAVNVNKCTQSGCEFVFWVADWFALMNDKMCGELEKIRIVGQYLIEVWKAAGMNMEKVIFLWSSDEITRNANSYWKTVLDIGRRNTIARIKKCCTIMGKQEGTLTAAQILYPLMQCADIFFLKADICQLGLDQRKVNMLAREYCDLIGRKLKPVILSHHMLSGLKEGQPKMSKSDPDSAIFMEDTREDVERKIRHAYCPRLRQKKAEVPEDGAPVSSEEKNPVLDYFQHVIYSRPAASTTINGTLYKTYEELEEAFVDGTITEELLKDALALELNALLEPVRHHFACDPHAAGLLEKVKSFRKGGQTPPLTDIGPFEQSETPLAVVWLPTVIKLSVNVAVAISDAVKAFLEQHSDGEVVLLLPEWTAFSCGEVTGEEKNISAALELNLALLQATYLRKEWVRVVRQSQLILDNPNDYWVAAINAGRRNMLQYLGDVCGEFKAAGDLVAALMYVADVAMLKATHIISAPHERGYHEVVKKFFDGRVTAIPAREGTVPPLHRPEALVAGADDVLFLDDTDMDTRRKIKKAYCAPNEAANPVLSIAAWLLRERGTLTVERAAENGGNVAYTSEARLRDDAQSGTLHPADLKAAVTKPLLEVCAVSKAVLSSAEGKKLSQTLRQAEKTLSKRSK
# protocol_summary: Trypanosoma cruzi tyrosyl tRNA synthetase (TcYRS) SOP
# Format: functional
# Design: scale not given: direction of the effect not stated beside the values
# test_context: 30 µM
Label key: true (1) means Percent Effect under 6%; false (0) means Percent Effect of 6% or more.

// below: answered molecules
{"molecule": "CCn1ncnc1C(NC(=O)CC1CCN(C(C)C)CC1)C1CC1 (centres undefined)", "group_label": "true (1)"}
{"molecule": "Cn1cc(CN2CCn3cc(CNC(=O)c4cccn4C)nc3C2)cn1", "group_label": "false (0)"}
{"molecule": "O=C(NC1COC2(CCN(Cc3ccccn3)CC2)C1)c1ccccn1 (centres undefined)", "group_label": "false (0)"}

Request: I wonder whether O=C(Cc1cn2ccsc2n1)N1CCCC(n2cncn2)C1 (centres undefined) has Percent Effect below 6%. Can you tell?
Result: false (0)

Request: Follow-up entry: CCNc1nc2c(s1)C(=O)CN(C(=O)NCCc1ccccc1)C2
Result: true (1)

Request: Follow-up entry: O=S(=O)(C1CC1)N1C[C@H]2CCC[C@@]2(COc2ccccn2)C1
Result: false (0)

Request: Follow-up entry: CCn1cc(CNC2CC(=O)N(CCc3cccc(Cl)c3)C2)cn1 (centres undefined)
Result: false (0)

###

# target_system: Sialic acid-binding Ig-like lectin 9 (Homo sapiens) (UniProt Q9Y336)
# Sequence (Q9Y336 whole entry): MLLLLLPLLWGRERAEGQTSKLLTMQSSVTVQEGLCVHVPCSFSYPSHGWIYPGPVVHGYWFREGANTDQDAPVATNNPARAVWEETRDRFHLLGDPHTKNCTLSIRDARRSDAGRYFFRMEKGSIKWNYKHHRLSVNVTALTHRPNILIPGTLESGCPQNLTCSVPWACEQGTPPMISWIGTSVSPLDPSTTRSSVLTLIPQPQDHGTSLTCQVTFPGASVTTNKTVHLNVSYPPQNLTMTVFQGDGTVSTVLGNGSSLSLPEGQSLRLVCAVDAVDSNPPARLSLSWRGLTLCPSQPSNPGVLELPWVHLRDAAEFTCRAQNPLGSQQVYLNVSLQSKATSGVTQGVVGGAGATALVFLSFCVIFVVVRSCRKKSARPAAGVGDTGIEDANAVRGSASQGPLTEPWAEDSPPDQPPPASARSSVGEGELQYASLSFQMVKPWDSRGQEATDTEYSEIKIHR
# protocol_summary: Hs-Siglec9 ALPHAscreen SOP 20170721
# Parameters: scale not given: direction of the effect not stated beside the values
# test_context: 10 µM
measurement_kind: Percent Effect
Write the numeric value and follow it with the unit.

{"compound": "Cc1nn(C)c(N(C)C)c1CNCC(O)COc1ccccc1 (configuration not stated)", "measurement_kind": "Percent Effect", "value": "0.598%"}
{"compound": "CS(=O)(=O)NCC1CCCN(C(=O)c2ccc(Cl)o2)C1 (configuration not stated)", "measurement_kind": "Percent Effect", "value": "-4.36%"}
{"compound": "CC(Cn1ccnc1)NC(=O)N1CCN(Cc2cccnc2)CC1 (configuration not stated)", "measurement_kind": "Percent Effect", "value": "5.79%"}
{"compound": "OC(COc1ccccc1)CN1CCc2c(ncn2C2CC2)C1 (configuration not stated)", "measurement_kind": "Percent Effect", "value": "5.27%"}
{"compound": "CSCc1cccc(S(=O)(=O)NCCCn2ccnc2)c1", "measurement_kind": "Percent Effect", "value": "6.2%"}

Request: Can you share its Percent Effect? I mean this compound: CC(C(=O)N1CCCN(c2ncccc2C#N)CC1)n1ccnc1 (configuration not stated)
Result: -9.53%

Request: Follow-up entry: CCn1ncc2c1CCCC2NCC1=Cc2ccccc2OC1 (configuration not stated)
Result: 0.918%

Request: Follow-up entry: CCn1c(C(=O)N2CCN(C(=O)COC)CC2)cc2ccccc21
Result: 23.8%

Request: Follow-up entry: Cc1cnn(C2CCCN(C(=O)CCCOc3cccc(F)c3)C2)c1 (configuration not stated)
Result: 2.93%

Request: Follow-up entry: O=C(NCCn1ccnc1)N1CCN(c2nccs2)CC1
Result: -5.93%

Request: Follow-up entry: Cc1noc2ncc(C(=O)N3CCCC3c3ccncc3)cc12 (configuration not stated)
Result: 0.762%

Request: Follow-up entry: Cc1nn(C)c(C)c1CNCc1ccnc(N2CCOCC2)c1
Result: -0.497%
